tgt: T1, bovine serum albumin (BSA) (bovine, UniProt P02769 25-607)
T1 construct: Control antigen coated at 1% in PBS (pH 7.4); also called negative control antigen
runDescription: phage ELISA, 1% BSA coated, anti-M13-HRP detection
propertyName: OD492 nm

Supply OD492 nm value. Item: SC06-242 (scFv, Vl 132-237); also called single-chain phage antibody SC06-242) scFv: EVQLVESGPGLVKPSETLSLTCTVSGGSISSYYWSWIRQPPGKGLEWIGYIYYTGTTNYNPSLNSRVTISADTSKNQFSLKLSSVTAADTAVYYCARGGQTAGVWGKGTTVTVSSGTGGSGGTGSGTGGSTQSVLTQPPSVSVAPGQTARITCGGYNIGRKSVHWYQQKPGLAPVLVVYDNSDRPSGIPARFSGSNSGNTATLTISGTQAMDEADYYCQAWDRGTAVFGTGTKVTVL
0.043 OD492 nm

Supply OD492 nm value. Item: SC06-246 (scFv, Vl 138-245); also called single-chain phage antibody SC06-246) scFv: EVQLVESGGGLIQPGGSLRLSCAASGFTVSSDFMTWVRQAPGRGLEWVSLIYSGGKTNYADSVKGRFTISRDNSRNTLYLQMNSLRAEDTAVYYCARSVCSTISCSKLDDWGQGTLVTVSSGTGGSGGTGSGTGGSTQAVLTQPSSVSVAPGQTARITCGGNNIGRKSVHWYQQKPGLAPVLVVNDNSDRPSGIPARFSGSNSGNTATLTISRVEAGDEADYYCHVWGSSRDHYVFGTGTKVTVL
0.042 OD492 nm

Supply OD492 nm value. Item: SC06-092 (scFv, Vl 138-248); also called single-chain phage antibody SC06-092) scFv: EVQLVESGGGLVQPGRSLRLSCTGSGFTFGDYAMSWFRQAPGKGLEWVGFIRNKAYGGTAEYAASVKDRFIISRDDSKSIAYLQMNSLKTEDTAVYYCVRREYDTGWLDYWGQGTLVTVSSGTGGSGGTGSGTGGSTQSALTQPPSASGSPGQSVTISCTGTSSDVGGYNYVSWYQRHPGKAPKLMIYDVTDRPSGVSNRFSGSKSGNTASLTISGLQAEDEADYYCSSYTSSSTSAVFGGGTKLTVL
0.047 OD492 nm

Supply OD492 nm value. Item: SC06-087 (scFv, Vl 139-249); also called single-chain phage antibody SC06-087) scFv: EVQLVESGGGLVKPGGSLRLSCAASGFTFSSNSMNWVRQAPGKGLEWVSFISSSSTYIYYADSVKGRFTISRDNAKNSLYLQMNSLRAEDTAVYYCARESAAGISYDAFDIWGQGTMVTVSSGTGGSGGTGSGTGGSTQSALTQPASVSGSPGQSITISCTGTSSDVGGYKYVSWYQQHPGKAPKLMIYEVSNRPSGVSNRFSGSKSGSTASLTISGLQAEDEADYYCSSYTSSSTLGVFGTGTKVTVL
0.044 OD492 nm

Supply OD492 nm value. Item: SC05-166 (scFv, Vl 150-259); also called single-chain phage antibody SC05-166) scFv: QVQLVQSGAEVKKPGASVKVSCKASGYTFTSYAISWVRQAPGQGLEWMGWISAYNGNTNYARKLQGRVTMTTDTSTSTAYMELRSLRSDDTAVYYCARAGLMFTAWFGELWDHGTKDNWFDPWGQGTLVTVSSGTGGSGGTGSGTGGSTNFMLTQPHSVSESPGKTVTISCTRSSGSIASYYVQWYQQRPGSSPTTVIYEDNQRPSGVPDRFSGSIDSSSNSASLTISGLKTEDEADYYCQSYDSSNQVFGGGTKLTVL
0.104 OD492 nm
